read-out: Interferon-gamma inducible Protein 10 (IP10), CXCL10 (gene 3627); test: BSK_KF3CT_IP10: BioMAP Diversity Plus: KF3CT Assay for Interferon-gamma inducible Protein 10 (IP10) Biomarker Activity (AID 2283068); conditions: primary human keratinocytes with fibroblasts; actives raise or lower the signal
Activity calls are given as the source filed them. Rule for the calls: active = hit-call score of the fitted dose curve at least 0.9, where 1 is the maximum; inactive = score below 0.9.
Log the outcome using a class from active, inactive

Input line: GET /call?item= COc1nc(C)nc(NC(=O)NS(=O)(=O)c2ccccc2CCC(F)(F)F)n1 returns the recorded outcome of this test.
Output line: inactive

Input line: How about this compound: COP(N)(=O)SC (centres undefined)
Output line: inactive

Input line: How about this compound: COP(=S)(OC)Oc1nc(Cl)c(Cl)cc1Cl
Output line: inactive

Input line: How about this compound: CNC(=S)S
Output line: active
